Origin of the recorded values: the supplement of paper PMC7125110

B1: glmS ribozyme (parent)
chain: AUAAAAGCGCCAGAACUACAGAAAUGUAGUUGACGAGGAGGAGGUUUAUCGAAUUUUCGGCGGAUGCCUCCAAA

# Variants of: B1
# assay details: self-cleavage kobs at 160 uM GlcN6P; higher = faster cleavage; RNA array
# test conditions: with glucosamine-6-phosphate
Fewer inactive variants are shown than the library holds.
Could you please report measured self-cleavage kobs at 160 uM GlcN6P for the items listed next?

State its self-cleavage kobs at 160 uM GlcN6P for this variant: G35U U46C < 1e-05 s⁻¹

State its self-cleavage kobs at 160 uM GlcN6P for this variant: C10A G60A < 1e-05 s⁻¹

State its self-cleavage kobs at 160 uM GlcN6P for this variant: G41A C67A < 1e-05 s⁻¹

State its self-cleavage kobs at 160 uM GlcN6P for this variant: G66A C70A 7.28e-05 s⁻¹

State its self-cleavage kobs at 160 uM GlcN6P for this variant: U31G U47A 0.000474 s⁻¹

State its self-cleavage kobs at 160 uM GlcN6P for this variant: G13A G40C C70G < 1e-05 s⁻¹

State its self-cleavage kobs at 160 uM GlcN6P for this variant: C8A C34U G40A A52U < 1e-05 s⁻¹

State its self-cleavage kobs at 160 uM GlcN6P for this variant: A15U A33G U47G U54G C67U C71A 0.000235 s⁻¹

State its self-cleavage kobs at 160 uM GlcN6P for this variant: C8G U46C A53C < 1e-05 s⁻¹

State its self-cleavage kobs at 160 uM GlcN6P for this variant: G7U C19A < 1e-05 s⁻¹

State its self-cleavage kobs at 160 uM GlcN6P for this variant: G7U U55G U57G C61A A64C C68U < 1e-05 s⁻¹

State its self-cleavage kobs at 160 uM GlcN6P for this variant: A14C U46C 5.14e-05 s⁻¹

State its self-cleavage kobs at 160 uM GlcN6P for this variant: C11A U56C < 1e-05 s⁻¹

State its self-cleavage kobs at 160 uM GlcN6P for this variant: A15C G35U C70U < 1e-05 s⁻¹

State its self-cleavage kobs at 160 uM GlcN6P for this variant: C16A U57A < 1e-05 s⁻¹

State its self-cleavage kobs at 160 uM GlcN6P for this variant: A6U G32U C50G 7.94e-05 s⁻¹

State its self-cleavage kobs at 160 uM GlcN6P for this variant: G44U G63U < 1e-05 s⁻¹

State its self-cleavage kobs at 160 uM GlcN6P for this variant: G7A G13A < 1e-05 s⁻¹

State its self-cleavage kobs at 160 uM GlcN6P for this variant: G13U G43C < 1e-05 s⁻¹

State its self-cleavage kobs at 160 uM GlcN6P for this variant: G9A G41U U56G < 1e-05 s⁻¹

State its self-cleavage kobs at 160 uM GlcN6P for this variant: U49C A52C < 1e-05 s⁻¹

State its self-cleavage kobs at 160 uM GlcN6P for this variant: A12C G59A < 1e-05 s⁻¹

State its self-cleavage kobs at 160 uM GlcN6P for this variant: A14C U45G 6.63e-05 s⁻¹

State its self-cleavage kobs at 160 uM GlcN6P for this variant: G9U A33U < 1e-05 s⁻¹

State its self-cleavage kobs at 160 uM GlcN6P for this variant: A14U U47C 4.9e-05 s⁻¹

State its self-cleavage kobs at 160 uM GlcN6P for this variant: C34A U49C < 1e-05 s⁻¹

State its self-cleavage kobs at 160 uM GlcN6P for this variant: U45G G51U < 1e-05 s⁻¹

State its self-cleavage kobs at 160 uM GlcN6P for this variant: G29U A33U U54G < 1e-05 s⁻¹

State its self-cleavage kobs at 160 uM GlcN6P for this variant: G7A G9U C58A < 1e-05 s⁻¹

State its self-cleavage kobs at 160 uM GlcN6P for this variant: A33C U46A < 1e-05 s⁻¹

State its self-cleavage kobs at 160 uM GlcN6P for this variant: G7U G43U C68U < 1e-05 s⁻¹

State its self-cleavage kobs at 160 uM GlcN6P for this variant: A6G C71G < 1e-05 s⁻¹

State its self-cleavage kobs at 160 uM GlcN6P for this variant: A14U A48G < 1e-05 s⁻¹

State its self-cleavage kobs at 160 uM GlcN6P for this variant: A6G G35A C67U U69A < 1e-05 s⁻¹
